System: IB3-1 cells
Test: Cell proliferation assay on IB3-1 cells
Type: cell-based
Experimental Parameters: Homo sapiens, cell number/ml after 48 h of treatment
Attribute Measured: IC50

compound Cc1cc(=O)oc2c1cc(Cl)c1occ(C)c12 [Compound 12] , IC50 observed: > 800 µM

Lab note: measured IC50 of COCc1oc2c(C)cc3c(C)cc(=O)oc3c2c1C [Compound 3] was > 800 µM

For Cc1cc(=O)[nH]c2c1cc(C)c1oc(CO)c(C)c12 [Compound 18] the compound record lists IC50 as > 800 µM

Summary for this compound, Cc1cc(=O)n(C)c2c1cc(C)c1occ(C)c12 [Compound 19] : IC50 is 131 µM

// IC50 value for Cc1cc(=O)oc2c1cc(C)c1occc12 [Compound 4] : > 800 µM

Query Cc1cc2c(o1)c(C)cc1c(CO)cc(=O)oc12 [Compound 25] yields IC50 of 551 µM

GET /value?item= Cc1cc2c(C)cc3oc(=O)cc(C)c3c2o1 [Compound 33] &field=IC50 returns > 800 µM

# IC50 (compound: COCc1cc(=O)oc2c1cc(C)c1scc(C)c12 [Compound 15] ) is > 800 µM

Per the records, this compound ( CC(=O)OCc1oc2c(C)cc3c(C)cc(=O)oc3c2c1C [Compound 2] ) has IC50 equal to > 800 µM

compound Cc1cc2ccc(=O)oc2c2c(C)coc12 [Compound 6] , IC50 observed: 454 µM
